Origin of measurements: patent US20260193326A1

MEASURED_TARGET: T1, AAV9
T1 construct: also called adeno-associated virus serotype 9
TEST_NAME: SPR, AAV on CM5 chip;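 also: surface plasmon resonance with AAV amine-coupled to the chip as ligand, nanobodies injected as analyte over a concentration series, rate constants and affinity fitted from binding curves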
Readings of koff for the listed binders
ASSAY_METRIC: koff (s⁻¹)

>>> obs_value("A4-013 (VHH) VHH: VQLQESGGGLVQPGGSLRLSCAASGSRFSINSMGWYRQAPGKQRELVATVTRGGNTNYADSVKGRFTISRDNAKNTVYLQMNSLRPEDTAVYYCHVDEVRESSWTTSNLWGQGTQVTVSS")
0.0379
>>> obs_value("A4-004 (VHH) VHH: VQLQESGGGLVQPGGSLRLSCAASGSRFSINTMGWYRQAPGKQRELVAAVTRGGSTNYAGSVKGRFTISRDNAKNTVYLQMNSLRPEDTAVYYCHIDEVRQSSWTTSNIWGQGTQVTVSS")
0.00081
>>> obs_value("A4-010 (VHH) VHH: VQLQESGGGLVQAGGSLRLSCAASGSIFSINSMGWYRQAPGKQRELVATVTRGGNTNYADSVKGRFTISRDNAKNTVYLQMNSLRPEDTAVYYCHVDEVRESSWTTSNLWGQGTQVTVSS")
0.0329
>>> obs_value("A4-021 (VHH) VHH: VQLQESGGGLVQAGGSLRLSCAASGSTFSINTMGWYRQAPGKQRELVATITRGGNTNYADSVKGRFTISRDNAKNTVYLQMNSLRPEDTAVYYCHVDEVRQSSWTTSNIWGQGTQVTVSS")
0.00014
>>> obs_value("A4-047 (VHH) VHH: VQLQESGGGLVQPGGSLRLSCAASGSRFSINTMGWYRQAPGKQRELVATVTRGGSTNYAGSVKGRFTISRDNAKNTVYLQMNSLRPEDTAVYYCHVDEVRQSSWTTSNLWGQGTQVTVSS")
0.00147
>>> obs_value("A4-042 (VHH) VHH: VQLQESGGGLVQPGGSLRLSCAASGRAFSINTMGWYRQAPGKQRELVATVTRDGSTNYADSVKGRFTISRDNAKNTVYLQMNSLRPEDTAVYYCHVDEVRQSSWTTSNLWGQGTQVTVSS")
0.00144
>>> obs_value("A4-026 (VHH) VHH: VQLQESGGGLVQPGGSLRLSCAASGSNFRINTMGWYRQAPGKQRELVAPVTRGGSTNYADSVKGRFTISRDNAKNTVYLQMNSLRPEDTAVYYCHVDEVRESSWTTSNLWGQGTQVTVSS")
0.00253
>>> obs_value("A4-034 (VHH) VHH: VQLQESGGGLVQPGGSLRLSCAASGRGFSINTMGWYRQAPGKQRELVAAVTRGGTTNYADSVKGRFTISRDNAKNTVYLQMNSLRPEDTAVYYCHVDEVRQSSWTTSNLWGQGTQVTVSS")
0.00129
